Target: ΔF508-CFTR (Homo sapiens, UniProt P13569, DEL508-508)
Construct: host or cells: CFBE41o-, doxycycline-inducible
Sequence (P13569 with tags, fused parts or gaps DEL508-508): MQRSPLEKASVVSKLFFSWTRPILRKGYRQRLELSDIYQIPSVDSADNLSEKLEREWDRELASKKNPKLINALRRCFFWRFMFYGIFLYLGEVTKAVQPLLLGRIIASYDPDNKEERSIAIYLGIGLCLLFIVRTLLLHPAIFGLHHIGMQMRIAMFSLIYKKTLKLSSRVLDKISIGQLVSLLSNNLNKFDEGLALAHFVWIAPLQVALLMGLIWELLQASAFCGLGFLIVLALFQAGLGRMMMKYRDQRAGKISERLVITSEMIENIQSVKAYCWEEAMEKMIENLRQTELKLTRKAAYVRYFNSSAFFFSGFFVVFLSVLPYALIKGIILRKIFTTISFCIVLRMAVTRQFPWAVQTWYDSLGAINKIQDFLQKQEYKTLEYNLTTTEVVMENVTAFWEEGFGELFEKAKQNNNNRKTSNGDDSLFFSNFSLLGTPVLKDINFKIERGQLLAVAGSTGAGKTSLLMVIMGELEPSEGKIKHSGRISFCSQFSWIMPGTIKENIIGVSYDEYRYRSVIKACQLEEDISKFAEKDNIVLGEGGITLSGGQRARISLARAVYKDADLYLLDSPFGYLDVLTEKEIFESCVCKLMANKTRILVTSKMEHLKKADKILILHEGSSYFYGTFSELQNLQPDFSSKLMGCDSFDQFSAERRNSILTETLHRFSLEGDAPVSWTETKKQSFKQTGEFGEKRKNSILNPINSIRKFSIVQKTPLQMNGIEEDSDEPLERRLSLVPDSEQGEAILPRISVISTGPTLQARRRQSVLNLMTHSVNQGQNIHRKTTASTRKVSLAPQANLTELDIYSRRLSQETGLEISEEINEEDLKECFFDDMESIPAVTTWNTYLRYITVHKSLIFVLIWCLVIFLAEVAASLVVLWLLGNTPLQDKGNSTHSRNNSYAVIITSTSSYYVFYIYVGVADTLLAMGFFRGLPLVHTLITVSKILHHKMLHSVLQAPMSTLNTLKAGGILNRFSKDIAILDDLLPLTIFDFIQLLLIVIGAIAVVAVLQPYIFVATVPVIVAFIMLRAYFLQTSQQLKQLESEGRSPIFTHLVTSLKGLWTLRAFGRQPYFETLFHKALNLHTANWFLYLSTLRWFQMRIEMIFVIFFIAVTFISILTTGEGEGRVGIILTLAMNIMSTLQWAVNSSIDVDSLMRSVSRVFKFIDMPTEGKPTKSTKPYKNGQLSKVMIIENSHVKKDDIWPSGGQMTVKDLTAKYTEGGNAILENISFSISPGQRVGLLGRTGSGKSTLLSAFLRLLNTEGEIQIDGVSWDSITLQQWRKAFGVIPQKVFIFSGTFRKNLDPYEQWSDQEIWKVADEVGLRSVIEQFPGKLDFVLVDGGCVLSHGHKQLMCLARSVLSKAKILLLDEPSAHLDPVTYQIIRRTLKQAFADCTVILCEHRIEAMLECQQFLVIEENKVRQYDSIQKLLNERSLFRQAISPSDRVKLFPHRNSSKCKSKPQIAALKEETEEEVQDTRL
Assay: CFTR cell surface levels using HRP-tagged ΔF508-CFTR expressing CFBE cells, in the presence of a co-corrector
Assay type: cell-based
Details: HRP-tagged ΔF508-CFTR CFBE cells, in the presence of 3 μM co-corrector
OBSERVATION TYPE: % Activation (%)
Numbers only, in %.

Required: % Activation, one value per compound below.
1. O=C(c1cc(N2CCC(CN3CCCC3)CC2)c2c(C3CCC3)nn(-c3ccccc3)c2n1)N1CCCCS1(=O)=O
2. COCC1CCN(c2cc(C(=O)NS(=O)(=O)CCn3cccn3)nc3c2c(C2CCC2)nn3-c2ccccc2)CC1
3. CC1(c2nn(-c3ccccc3)c3nc(C(=O)NS(C)(=O)=O)cc(-c4ccc(N5CCOCC5)cc4)c23)CCC1
4. COCC1CCN(c2cc(C(=O)NS(=O)(=O)CC(N)=O)nc3c2c(C2CCC2)nn3-c2ccccc2)CC1
5. Cc1cccc(-n2nc(C(C)C)c3c(N4CCC5(C4)CC5(F)F)cc(C(=O)NS(C)(=O)=O)nc32)c1 (stereo not shown)
6. CN1CCN(c2ccc(-c3cc(C(=O)NS(=O)(=O)N(C)C)nc4c3c(C3CCC3)nn4C3CCCCC3)cn2)CC1
7. COCC1CCN(c2cc(C(=O)NS(=O)(=O)CC(C)C)nc3c2c(C2CCC2)nn3-c2ccccc2)CC1

Outgoing:
[206.5, 615.7, 339.7, 391.35, 299.95, 403.1, 546.75]
